Test system: recombinant full-length USP7 (Homo sapiens, UniProt Q93009)
Construct: A 25 μl reaction volume containing recombinant full-length USP7 (62 pM)
Sequence (Q93009 whole entry): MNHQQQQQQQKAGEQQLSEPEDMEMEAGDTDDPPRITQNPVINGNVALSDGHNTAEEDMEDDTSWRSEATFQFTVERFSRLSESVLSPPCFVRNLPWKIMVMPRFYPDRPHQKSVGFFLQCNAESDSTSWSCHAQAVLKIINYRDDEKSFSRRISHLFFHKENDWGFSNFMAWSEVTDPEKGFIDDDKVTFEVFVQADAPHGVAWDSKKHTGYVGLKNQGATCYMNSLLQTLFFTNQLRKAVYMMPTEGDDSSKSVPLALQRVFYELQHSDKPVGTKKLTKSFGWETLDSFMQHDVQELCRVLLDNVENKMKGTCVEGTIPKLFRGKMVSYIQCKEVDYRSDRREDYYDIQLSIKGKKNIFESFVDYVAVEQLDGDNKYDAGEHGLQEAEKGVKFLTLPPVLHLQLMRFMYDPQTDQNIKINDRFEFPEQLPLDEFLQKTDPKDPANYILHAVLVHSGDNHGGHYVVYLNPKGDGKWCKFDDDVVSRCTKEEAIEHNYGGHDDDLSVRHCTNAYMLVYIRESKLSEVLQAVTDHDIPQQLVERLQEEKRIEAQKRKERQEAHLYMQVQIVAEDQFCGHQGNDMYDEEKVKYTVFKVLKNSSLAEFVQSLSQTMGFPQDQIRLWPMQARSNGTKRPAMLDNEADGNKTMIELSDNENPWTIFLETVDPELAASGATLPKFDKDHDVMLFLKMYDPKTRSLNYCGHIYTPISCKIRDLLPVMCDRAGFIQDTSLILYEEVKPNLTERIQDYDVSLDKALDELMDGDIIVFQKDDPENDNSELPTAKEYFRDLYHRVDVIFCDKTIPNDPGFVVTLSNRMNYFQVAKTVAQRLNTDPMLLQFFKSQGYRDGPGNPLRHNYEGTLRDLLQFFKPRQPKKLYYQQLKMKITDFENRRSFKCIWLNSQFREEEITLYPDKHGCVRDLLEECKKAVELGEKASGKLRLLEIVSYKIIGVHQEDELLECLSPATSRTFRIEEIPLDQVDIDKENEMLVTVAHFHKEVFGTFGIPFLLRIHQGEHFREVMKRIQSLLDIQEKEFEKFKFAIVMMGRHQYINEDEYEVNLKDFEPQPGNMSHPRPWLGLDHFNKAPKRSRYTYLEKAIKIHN
Test: USP7-mediated ubiquitin-rhodamine cleavage assay
Assay type: biochemical
Condition context: recombinant full-length USP7 62 pM; ubiquitin-rhodamine 100 nM; 30-minute incubation with compound, 1 hour reaction at room temperature; read-out: Potency: USP7 IC50
pIC50: −log10 of the molar value.
Assay endpoint: pIC50

Sample Cc1cc(Cl)cc(-c2ccnc3cc(CO)sc23)c1OCC1(F)CNC1 ; pIC50 observed: 5.00 to 6.00

* * *

Test system: recombinant full-length USP7 (Homo sapiens, UniProt Q93009)
Construct: A 25 μl reaction volume containing recombinant full-length USP7 (62 pM)
Test: USP7-mediated ubiquitin-rhodamine cleavage assay
Format: biochemical
Condition context: recombinant full-length USP7 62 pM; ubiquitin-rhodamine 100 nM; 30-minute incubation with compound, 1 hour reaction at room temperature; read-out: Potency: USP7 IC50
pIC50: −log10 of the molar value.
Entries annotated with measured pIC50

Cc1cc(Cl)cc(-c2ccnc3cc(Cn4c(=O)ccn(CC(F)(F)F)c4=O)sc23)c1O[C@@H]1CC[C@@H](N)C1 = > 6.00
CN[C@@H]1CC[C@@H](Oc2c(C)cc(Cl)cc2-c2ccnc3cc(CN4C(=O)CCC4=O)sc23)C1 = > 6.00
Cc1cc(Cl)cc(-c2ccnc3cc(CCN4C(=O)CCS4(=O)=O)sc23)c1OC1CCNCC1 = 4.52 to 5.00
Cc1cc(Cl)cc(-c2ccnc3cc(CN4C(=O)C5C(C4=O)C5(C)C)sc23)c1O[C@@H]1CCNC[C@@H]1F (stereo partly shown) [Example 376] = > 6.00
Cc1cc(Cl)cc(-c2ccnc3cc(Cn4c(C(F)(F)F)cccc4=O)sc23)c1OC1CCNCC1 = 4.52 to 5.00

Sample Cc1cc(Cl)cc(-c2ccnc3cc(CN4C(=O)SC(C)(C)C4=O)sc23)c1O[C@@H]1CNC[C@@H]1F ; pIC50 observed: > 6.00

Sample Cc1cc(Cl)cc(-c2ncnc3cc(CN4C(=O)C5CCCCC5C4=O)sc23)c1O[C@@H]1CNC[C@@H]1F (stereo partly shown) ; pIC50 observed: 5.00 to 6.00

* * *

Entries annotated with measured pIC50
Test system: recombinant full-length USP7 (Homo sapiens)
Construct: A 25 μl reaction volume containing recombinant full-length USP7 (62 pM)
Test: USP7-mediated ubiquitin-rhodamine cleavage assay
Assay type: biochemical
Condition context: recombinant full-length USP7 62 pM; ubiquitin-rhodamine 100 nM; 30-minute incubation with compound, 1 hour reaction at room temperature; read-out: Potency: USP7 IC50
pIC50: −log10 of the molar value.

Solved entries (count: 3):
Cc1cc(Cl)cc(-c2ccnc3cc(CN4C(=O)CCC4=O)sc23)c1O[C@@H]1C[C@H]2CC[C@@H](C1)N2 = > 6.00
O=C1CCC(=O)N1Cc1cc2nccc(-c3cc(Cl)cc(Cl)c3O[C@@H]3CNC[C@@H]3F)c2s1 = > 6.00
Cc1cc(Cl)cc(-c2ccnc3cc(CN4C(=O)C5C(C4=O)C5(C)C)sc23)c1OC1CNCC1(C)C (stereo not shown) = > 6.00

Turning now to a further molecule:
Sample CCC(O)c1cc2nccc(-c3cc(C#N)cc(C)c3OCC3(C)CNC3)c2s1 (stereo not shown) ; pIC50 observed: 5.00 to 6.00
